Measured melting point values are reported for all entries that follow.
Endpoint Label: melting point (°C)

compound=Cc1cc2ccccc2c(Br)c1C endpoint_label="melting point" result_units=°C result_value=63
compound="O=C1CCC2(O)C3Cc4ccc(O)c5c4C2(CCN3CC2CC2)C1O5 (stereo unspecified)" endpoint_label="melting point" result_units=°C result_value=169
compound=Cc1oc(-c2ccccc2)cc1-c1ccccc1 endpoint_label="melting point" result_units=°C result_value=44

====

Endpoint Label: melting point (°C)

molecule="COC1=CC2C3Cc4ccc(OC)c(O)c4C2(CCN3C)CC1=O (configuration not stated)" result_value=162
molecule=C=C(C)CCCCCCCCC result_value=-40
molecule="CC12C=CC=CC1NC(=C1C(=O)c3ccccc3C1=O)C=C2 (configuration not stated)" result_value=203
molecule=Nc1ccc(Br)cc1F result_value=40
molecule="CC1(C(=O)O)CCC(O)(CC(O)c2ccccc2)C1(C)C (configuration not stated)" result_value=188
molecule=CC(=O)Nc1cc(CCNC(=O)c2ccccc2)ccc1CCNC(=O)c1ccccc1 result_value=176
molecule=COc1ccc(C=CC(=O)c2ccc(O)cc2)cc1 result_value=188
molecule=COc1cc(Cl)ccc1CO result_value=47
molecule=O=C1Cc2cc([N+](=O)[O-])ccc21 result_value=76
molecule=CCOc1ccc(N)c(N)c1 result_value=71.5
molecule="O=C(O)C(O)c1ccccc1F (configuration not stated)" result_value=115
molecule=CCN1CN(CC)CN(CC)C1 result_value=70
molecule=O=[N+]([O-])c1cccc(NN=Cc2ccccc2)c1 result_value=196
molecule=CCOc1ccccc1OS(=O)(=O)NC(=O)Nc1nc(OC)cc(OC)n1 result_value=150
molecule="CC(C)(C)C(O)C(Oc1ccc(-c2ccccc2)cc1)n1cncn1 (single isomer, unassigned; stereoisomer a)" result_value=139
molecule=NS(=O)(=O)c1cc(S(=O)(=O)c2cccc(O)c2)cs1 result_value=145
molecule=CCCCCCCCCCCCCCCCCC#N result_value=41
molecule=CC1=CCC(C(C)C)=CC1 result_value=-10
molecule=Nc1cccc2c(N)cccc12 result_value=190
molecule=COC(=O)c1cccc2[nH]ccc12 result_value=70
molecule=Cc1ccccc1NC(=S)NN result_value=147
molecule=N#CC(=NO)c1ccccc1 result_value=129
molecule=C=COC(C)(C)C result_value=-112
molecule=Cc1c(C)c(C)c(O)c(C)c1C result_value=128
molecule=COc1ccc([N+](=O)[O-])c(C(=O)O)c1 result_value=133
molecule=Cc1nc2ccc3ccccc3c2o1 result_value=37
molecule=CCCCCC=O result_value=-56
molecule=COc1ccc(-c2cc(=O)c3ccccc3o2)cc1OC result_value=155
molecule=Cn1c(=O)c(C2=NNC(=O)C2=NNc2ccccc2Cl)c(O)c2ccccc21 result_value=264
molecule=Nc1cccc2cc3ccccc3cc12 result_value=116

====

Endpoint Label: melting point (°C)

molecule=O=C1/C(=C/c2ccccc2O)SC(=S)N1CN(CCCl)CCCl result_units=°C relation_operator== result_value=233
molecule=CC(C)(C)c1cc(Br)cc(C(C)(C)C)c1O result_units=°C relation_operator== result_value=83
molecule=O=C(c1ccccc1)C(c1ccccc1)(c1ccccc1)c1ccccc1 result_units=°C relation_operator== result_value=182
molecule="CCC(C)C(CC)C(N)=O (configuration not stated)" result_units=°C relation_operator== result_value=114
molecule=Cc1cc(Cn2nc(C)cc2C)c(O)c(Cn2nc(C)cc2C)c1 result_units=°C relation_operator== result_value=125
molecule=Cc1ccccc1C1=Cc2ccccc2C2(OCCO2)O1 result_units=°C relation_operator== result_value=75
molecule=COc1nc(Cl)nc(OC)n1 result_units=°C relation_operator== result_value=77
molecule="CC(C)(C)NC(=O)C1CCC2CC34CCC(CC=C3C=C(O)C=O)C4CCC21C (configuration not stated)" result_units=°C relation_operator== result_value=257
molecule=CSC(=Nc1nnc(-c2ccc([N+](=O)[O-])cc2)s1)SC result_units=°C relation_operator=> result_value=250
